# Tested on: MDA-MB-231
# test.protocol: CellTiter-Glo cell growth inhibition, MDA-MB-231
# Format: cell-based
# assay.conditions: Homo sapiens, MDA-MB-231, 96 h, 4 days, Table 4
pIC50: −log10 of the molar value.
property.name: pIC50

Worked cases, answers included:
- Cc1nnc2n1-c1sc(C#Cc3cnc(CCCC#Cc4cccc5c4CN(C4CCC(=O)NC4=O)C5=O)n3C)c(Cc3ccccc3)c1CO[C@H]2C (stereo partly drawn): 7.60
- Cc1nnc2n1-c1sc(C#Cc3cnn(CCNc4cccc5c4C(=O)N(C4CCC(=O)NC4=O)C5=O)c3)c(Cc3ccccc3)c1CO[C@H]2C (stereo partly drawn): 7.19
- Cc1nnc2n1-c1sc(C#Cc3ccc(CCCCNc4cc(F)cc5c4CN(C4CCC(=O)NC4=O)C5=O)nc3)c(Cc3ccccc3)c1COC2 (stereo not drawn): 8.64
- Cc1nnc2n1-c1sc(C#CCOCCOCCNc3cccc4c3C(=O)N(C3CCC(=O)NC3=O)C4=O)c(Cc3ccccc3)c1CO[C@H]2C (stereo partly drawn): 7.31
- Cc1nnc2n1-c1sc(C#Cc3cnn(CCOCCNc4cccc5c4C(=O)N(C4CCC(=O)NC4=O)C5=O)c3)c(Cc3ccccc3)c1CO[C@H]2C (stereo partly drawn): 8.33

I = Cc1nnc2n1-c1sc(C#Cc3ccc(CNc4cccc5c4C(=O)N(C4CCC(=O)NC4=O)C5=O)nc3)c(Cc3ccccc3)c1CO[C@H]2C (stereo partly drawn)
II = Cc1nnc2n1-c1sc(C#Cc3cnn(CCCNc4cccc5c4C(=O)N(C4CCC(=O)NC4=O)C5=O)c3)c(Cc3ccccc3)c1CO[C@H]2C (stereo partly drawn)
III = Cc1nnc2n1-c1sc(C#Cc3cnn(CCCCOc4cccc5c4C(=O)N(C4CCC(=O)NC4=O)C5=O)c3)c(Cc3ccccc3)c1COC2 (stereo not drawn)
IV = Cc1nnc2n1-c1sc(C#Cc3cnn(CCCCNc4cccc5c4C(=O)N(C4CCC(=O)NC4=O)C5=O)c3)c(Cc3ccccc3)c1CO[C@H]2C (stereo partly drawn)
V = Cc1nnc2n1-c1sc(C#Cc3cn(CCCC#Cc4cccc5c4CN(C4CCC(=O)NC4=O)C5=O)cn3)c(Cc3ccccc3)c1CO[C@H]2C (stereo partly drawn)
Req: Order the records by pIC50, with each subsequent value no larger than the one before. Please list each label once, in the requested order.
Resp: IV, III, V, II, I
